- test_name: Study 2 (MAD) plasma and urine pharmacokinetics
- Type: in vivo, human
- run_parameters: human, plasma, oral, 300 mg, MR 300 mg QD, day 1, fed (standard meal); read-out: AUCtau, geometric mean (%CV)
measured_quantity: AUC
I'd appreciate it if you included the unit after the number.

Param item = CC[C@@H]1[C@H](F)C(=O)N[C@@H]1COc1nccc2cc(C(N)=O)c(OC)cc12 [PF-06650833] ; retrieve measured AUC.
1150 ng·h/mL

###

- test_name: Study 2 (MAD) plasma and urine pharmacokinetics
- Type: in vivo, human
- run_parameters: human, urine, oral, 250 mg, IR 250 mg BID, day 14, fed (standard meal); read-out: CLr (renal clearance), geometric mean (%CV)
measured_quantity: CL renal at 14 day (mL/min)
Write down the numeric answer in mL/min and omit the unit.

Param item = CC[C@@H]1[C@H](F)C(=O)N[C@@H]1COc1nccc2cc(C(N)=O)c(OC)cc12 ; retrieve measured CL renal at 14 day.
13.9

###

- test_name: clinical
- run_parameters: human, in vivo, 1000 mg, t½, mean ± SD
measured_quantity: half-life (h)
Write down the numeric answer in h and omit the unit.

Param item = CC[C@@H]1[C@H](F)C(=O)N[C@@H]1COc1nccc2cc(C(N)=O)c(OC)cc12 ; retrieve measured half-life.
44.9

###

- test_name: Study 2 (MAD) plasma and urine pharmacokinetics
- Type: in vivo, human
- run_parameters: human, plasma, oral; MR 300 mg QD, day 14, fed (standard meal); read-out: Vz/F, geometric mean (%CV)
measured_quantity: Vd/F at 14 day (L)
Write down the numeric answer in L and omit the unit.

Param item = CC[C@@H]1[C@H](F)C(=O)N[C@@H]1COc1nccc2cc(C(N)=O)c(OC)cc12 ; retrieve measured Vd/F at 14 day.
11600

###

- test_name: clinical
- run_parameters: human, in vivo, 10 mg, Cmax, geometric mean (%CV)
measured_quantity: Cmax (ng/mL)
Write down the numeric answer in ng/mL and omit the unit.

Param item = CC[C@@H]1[C@H](F)C(=O)N[C@@H]1COc1nccc2cc(C(N)=O)c(OC)cc12 [PF-06650833] ; retrieve measured Cmax.
22.6

###

- test_name: Study 2 (MAD) plasma and urine pharmacokinetics
- Type: in vivo, human
- run_parameters: human, plasma, oral, 330 mg, IR 330 mg TID, day 14, fed (standard meal); read-out: AUCtau, geometric mean (%CV)
- Description: Subjects were enrolled sequentially into seven cohorts. Within each cohort, eight subjects and two subjects were randomized to receive PF-06650833 and placebo, respectively. Doses for all cohorts were administered after a standard (not high-fat) meal. […] PF-06650833 IR 330 mg TID (cohort 6) and an MR tablet at a dose of 300 mg QD (cohort 7) were also evaluated (see Fig. 1b for final dosing scheme). […] PK parameters were calculated using non-compartmental analysis of concentration-time data. […]
measured_quantity: AUC (ng·h/mL)
Write down the numeric answer in ng·h/mL and omit the unit.

Param item = CC[C@@H]1[C@H](F)C(=O)N[C@@H]1COc1nccc2cc(C(N)=O)c(OC)cc12 [PF-06650833] ; retrieve measured AUC.
1600

###

- test_name: Study 2 (MAD) plasma and urine pharmacokinetics
- Type: in vivo, human
- run_parameters: human, plasma, oral, 25 mg, IR 25 mg BID, day 14, fed (standard meal); read-out: AUCtau, geometric mean (%CV)
measured_quantity: AUC (ng·h/mL)
Write down the numeric answer in ng·h/mL and omit the unit.

Param item = CC[C@@H]1[C@H](F)C(=O)N[C@@H]1COc1nccc2cc(C(N)=O)c(OC)cc12 ; retrieve measured AUC.
204

###

- test_name: clinical
- run_parameters: human, in vivo, 1 mg, MRT, mean ± SD
measured_quantity: MRT
I'd appreciate it if you included the unit after the number.

Param item = CC[C@@H]1[C@H](F)C(=O)N[C@@H]1COc1nccc2cc(C(N)=O)c(OC)cc12 ; retrieve measured MRT.
3.12 h

###

- test_name: Study 2 (MAD) plasma and urine pharmacokinetics
- Assay type: in vivo, human
- run_parameters: human, plasma, oral, 300 mg, MR 300 mg QD, day 14, fed (standard meal); read-out: Cmax, geometric mean (%CV)
measured_quantity: Cmax

Param item = CC[C@@H]1[C@H](F)C(=O)N[C@@H]1COc1nccc2cc(C(N)=O)c(OC)cc12 ; retrieve measured Cmax.
147 ng/mL

###

- test_name: clinical
- run_parameters: human, in vivo, 300 mg, t½, mean ± SD
- Description: Study 1 (B7921001; NCT02224651) was a 96-day, phase 1, within-cohort, randomized, double-blind, sponsor-open, placebo-substitution, five-period crossover, SAD study in healthy adult subjects (Fig. 1a). […] For both studies, samples of blood (and urine in study 2) were taken for evaluation of PK/PD parameters (see Additional file 1: Supplemental Methods). […] The lower limit of quantification for PF-06650833 in plasma was 0.0500 ng/mL. […]
measured_quantity: half-life (h)
Write down the numeric answer in h and omit the unit.

Param item = CC[C@@H]1[C@H](F)C(=O)N[C@@H]1COc1nccc2cc(C(N)=O)c(OC)cc12 ; retrieve measured half-life.
38.8

###

- test_name: clinical
- run_parameters: human, in vivo, 3 mg, MRT, mean ± SD
measured_quantity: MRT (h)
Write down the numeric answer in h and omit the unit.

Param item = CC[C@@H]1[C@H](F)C(=O)N[C@@H]1COc1nccc2cc(C(N)=O)c(OC)cc12 ; retrieve measured MRT.
3.4

###

- test_name: clinical
- run_parameters: human, in vivo, 1000 mg, MRT, mean ± SD
measured_quantity: MRT (h)
Write down the numeric answer in h and omit the unit.

Param item = CC[C@@H]1[C@H](F)C(=O)N[C@@H]1COc1nccc2cc(C(N)=O)c(OC)cc12 ; retrieve measured MRT.
18.7

###

- test_name: clinical
- run_parameters: human, in vivo, 3 mg, Tmax, median (range)
measured_quantity: Tmax (min)
Write down the numeric answer in min and omit the unit.

Param item = CC[C@@H]1[C@H](F)C(=O)N[C@@H]1COc1nccc2cc(C(N)=O)c(OC)cc12 [PF-06650833] ; retrieve measured Tmax.
31.5

###

- test_name: Study 2 (MAD) plasma and urine pharmacokinetics
- Type: in vivo, human
- run_parameters: human, plasma, oral, 330 mg, IR 330 mg TID, day 1, fed (standard meal); read-out: Tmax, median (range)
measured_quantity: Tmax
I'd appreciate it if you included the unit after the number.

Param item = CC[C@@H]1[C@H](F)C(=O)N[C@@H]1COc1nccc2cc(C(N)=O)c(OC)cc12 ; retrieve measured Tmax.
2.03 h

###

- test_name: Study 2 (MAD) plasma and urine pharmacokinetics
- Assay type: in vivo, human
- run_parameters: human, plasma, oral, 330 mg, IR 330 mg TID, day 1, fed (standard meal); read-out: Cmax, geometric mean (%CV)
- Procedure: Subjects were enrolled sequentially into seven cohorts. Within each cohort, eight subjects and two subjects were randomized to receive PF-06650833 and placebo, respectively. Doses for all cohorts were administered after a standard (not high-fat) meal. […] PF-06650833 IR 330 mg TID (cohort 6) and an MR tablet at a dose of 300 mg QD (cohort 7) were also evaluated (see Fig. 1b for final dosing scheme). […] PK parameters were calculated using non-compartmental analysis of concentration-time data. […]
measured_quantity: Cmax (ng/mL)
Write down the numeric answer in ng/mL and omit the unit.

Param item = CC[C@@H]1[C@H](F)C(=O)N[C@@H]1COc1nccc2cc(C(N)=O)c(OC)cc12 ; retrieve measured Cmax.
309

###

- test_name: Study 2 (MAD) plasma and urine pharmacokinetics
- Format: in vivo, human
- run_parameters: human, plasma, oral, 750 mg, IR 750 mg BID, day 14, fed (standard meal); read-out: Tmax, median (range)
measured_quantity: Tmax (h)
Write down the numeric answer in h and omit the unit.

Param item = CC[C@@H]1[C@H](F)C(=O)N[C@@H]1COc1nccc2cc(C(N)=O)c(OC)cc12 ; retrieve measured Tmax.
2

###

- test_name: clinical
- run_parameters: human, in vivo, 300 mg, AUCinf, geometric mean (%CV)
measured_quantity: AUC(0-inf) (ng·h/mL)
Write down the numeric answer in ng·h/mL and omit the unit.

Param item = CC[C@@H]1[C@H](F)C(=O)N[C@@H]1COc1nccc2cc(C(N)=O)c(OC)cc12 ; retrieve measured AUC(0-inf).
2040

###

- test_name: Study 2 (MAD) plasma and urine pharmacokinetics
- Type: in vivo, human
- run_parameters: human, plasma, oral, 250 mg, IR 250 mg BID, day 1, fed (standard meal); read-out: AUCtau, geometric mean (%CV)
measured_quantity: AUC (ng·h/mL)
Write down the numeric answer in ng·h/mL and omit the unit.

Param item = CC[C@@H]1[C@H](F)C(=O)N[C@@H]1COc1nccc2cc(C(N)=O)c(OC)cc12 ; retrieve measured AUC.
1350

###

- test_name: Study 2 (MAD) plasma and urine pharmacokinetics
- Assay type: in vivo, human
- run_parameters: human, urine, oral, 25 mg, IR 25 mg BID, day 14, fed (standard meal); read-out: CLr (renal clearance), geometric mean (%CV)
measured_quantity: CL renal at 14 day (mL/min)
Write down the numeric answer in mL/min and omit the unit.

Param item = CC[C@@H]1[C@H](F)C(=O)N[C@@H]1COc1nccc2cc(C(N)=O)c(OC)cc12 ; retrieve measured CL renal at 14 day.
13.6
